All values here come from patent US7670613B2.

# maps each entry to its IC50
- system-under-test: androgen receptor (Homo sapiens, UniProt P10275, Q868H)
- Construct: a human breast tumor cell line expressing androgen receptor; endogenous in cells; host or cells: MDA-MB453-MMTV clone 54-19 (only the MMTV-luciferase reporter was transfected)
- Sequence (P10275 whole entry Q868H): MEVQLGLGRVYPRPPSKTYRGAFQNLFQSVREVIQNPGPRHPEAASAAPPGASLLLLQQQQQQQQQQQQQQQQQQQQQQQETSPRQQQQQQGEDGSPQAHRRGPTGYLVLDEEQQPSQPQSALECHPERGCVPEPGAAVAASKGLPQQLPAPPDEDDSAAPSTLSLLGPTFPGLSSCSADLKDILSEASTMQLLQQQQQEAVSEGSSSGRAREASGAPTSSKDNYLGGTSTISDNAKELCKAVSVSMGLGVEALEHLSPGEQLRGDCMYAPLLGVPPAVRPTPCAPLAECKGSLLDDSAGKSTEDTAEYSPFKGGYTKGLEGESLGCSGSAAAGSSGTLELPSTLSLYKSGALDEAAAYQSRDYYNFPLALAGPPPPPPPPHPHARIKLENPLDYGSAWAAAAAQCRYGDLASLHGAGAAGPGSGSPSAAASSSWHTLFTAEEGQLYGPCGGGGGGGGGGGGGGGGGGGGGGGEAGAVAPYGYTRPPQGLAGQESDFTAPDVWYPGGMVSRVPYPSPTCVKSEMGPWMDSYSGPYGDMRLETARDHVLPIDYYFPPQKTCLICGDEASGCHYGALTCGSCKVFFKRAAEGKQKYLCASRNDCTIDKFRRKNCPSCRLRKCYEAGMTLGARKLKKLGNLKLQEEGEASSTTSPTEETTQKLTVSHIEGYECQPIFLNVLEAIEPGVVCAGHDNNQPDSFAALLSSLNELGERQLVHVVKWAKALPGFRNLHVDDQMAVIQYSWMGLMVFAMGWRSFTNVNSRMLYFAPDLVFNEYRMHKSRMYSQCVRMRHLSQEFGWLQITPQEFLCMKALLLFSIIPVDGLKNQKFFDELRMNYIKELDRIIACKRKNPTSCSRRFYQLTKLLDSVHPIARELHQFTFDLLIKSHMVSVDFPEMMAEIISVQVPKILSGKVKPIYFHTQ
- experiment-description: AR antagonist cell assay (MDA-MB453-MMTV clone 54-19, luciferase reporter)
- Type: cell-based
- condition-label: MDA-MB453-MMTV clone 54-19 cells, 100 pM DHT, 17 hr; mean of multiple tests; read-out: AR Cell IC50
// return numeric value only (unit: µM, not printed)

Observe how each entry below is paired with its result.
N#Cc1ccc(O[C@H]2CCCC[C@@H]2c2ccccc2)cc1Cl = 0.421
N#Cc1ccc(OC2CCCC2)cc1C(F)(F)F = 0.605
N#Cc1ccc(OC2CCCCC2)cc1Cl = 0.147

Incoming: So what's the measured IC50 for this one? N#Cc1ccc(OC2CCCCCC2)c(Cl)c1
Outgoing: 0.012

Incoming: So what's the measured IC50 for this one? N#Cc1ccc(O[C@@H]2CCCC[C@H]2C#N)cc1Cl
Outgoing: 0.202

Incoming: So what's the measured IC50 for this one? CO[C@H]1CCC[C@H]1Oc1ccc(C#N)c(Cl)c1 (relative stereo)
Outgoing: 0.34
